Molecular target: his-labeled human IL-13 (immunogen A) (human) (UniProt P35225)
Experiment: cell-based or functional assay
Readout: Periostin (pg/mL), MRCS cells + IL-13 5 ng/mL; antibody at 0.53 nM
Supply the numeric figure in pg/mL, leaving out any unit text.

Here are 3 binders together with their reported answers.
{"Binder": "c29D9H8 (mouse-human chimeric IL-13 antibody) (antibody, V domains shown) VH: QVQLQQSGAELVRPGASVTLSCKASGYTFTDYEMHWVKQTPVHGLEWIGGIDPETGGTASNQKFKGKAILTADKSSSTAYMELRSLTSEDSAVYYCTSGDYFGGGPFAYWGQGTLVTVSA VL: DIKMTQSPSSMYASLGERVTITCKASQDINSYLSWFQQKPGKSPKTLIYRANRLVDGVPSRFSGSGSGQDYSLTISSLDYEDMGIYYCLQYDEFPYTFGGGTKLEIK", "Readout Unit": "pg/mL", "Observed Result": 1450}
{"Binder": "c28A2E11 (mouse-human chimeric IL-13 antibody) (antibody, V domains shown) VH: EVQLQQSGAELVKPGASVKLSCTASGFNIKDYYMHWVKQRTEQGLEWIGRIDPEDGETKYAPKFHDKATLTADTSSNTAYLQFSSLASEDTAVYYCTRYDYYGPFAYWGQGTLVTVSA VL: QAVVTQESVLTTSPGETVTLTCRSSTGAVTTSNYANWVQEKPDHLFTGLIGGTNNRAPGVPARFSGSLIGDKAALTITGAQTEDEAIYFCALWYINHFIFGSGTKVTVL", "Readout Unit": "pg/mL", "Observed Result": 1650}
{"Binder": "c70F10A10 (mouse-human chimeric IL-13 antibody) (antibody, V domains shown) VH: QIQLQQSGAELARPGASVKLSCKASGYTFTSYGISWVKQRDGQGLEWIGEIYPRSGNTDYNEKFKGKATLTADKSSSTAYMELRSLTSEDSAVYFCSSFTTLVPTDYFDYWGQGTTLTVSS VL: DIMMSQSPSSLAVSVGEKVSMTCKSSQSLLYSSNQKNYLAWYQQKPGQSPKMLIYWASTRETGVPDRFTGSGSGTDFTLTISSVMAEDLAVYYCHQYFTYPRTFGDGTKLEVK", "Readout Unit": "pg/mL", "Observed Result": 3660}

With those in mind, consider the next binder.
binder c35E2C3 (mouse-human chimeric IL-13 antibody) (antibody, V domains shown) VH: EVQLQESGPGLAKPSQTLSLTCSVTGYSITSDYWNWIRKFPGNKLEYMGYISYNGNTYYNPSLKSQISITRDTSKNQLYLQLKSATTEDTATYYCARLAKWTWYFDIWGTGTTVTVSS VL: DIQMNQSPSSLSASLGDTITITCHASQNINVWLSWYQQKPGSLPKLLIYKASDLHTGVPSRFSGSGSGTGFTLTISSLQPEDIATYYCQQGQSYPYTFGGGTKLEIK , Periostin (pg/mL), MRCS cells + IL-13 5 ng/mL; antibody at 0.53 nM observed: 4460
